# IC50 annotations
- System: gastric cancer cell line (SNU16)
- experimental-details: tumor cell proliferation inhibition (CTG), gastric cancer cell line
- Assay type: cell-based
- experimental-context: Homo sapiens, SNU-16, 72 hours, read-out: SUN16 IC50
endpoint: IC50

[
  {
    "compound": "NC(=O)c1cc2c(Oc3c(F)cc(NC(=O)NC4CC4)c(Cl)c3F)ccnc2cc1OCC(F)F",
    "experimental-value": "< 5 µM"
  },
  {
    "compound": "COc1cc2nccc(Oc3c(F)cc(NC(=O)NC4CC4)c(Cl)c3F)c2cc1C(=O)NC[C@@H](O)CO",
    "experimental-value": "> 10 µM"
  },
  {
    "compound": "COc1cc2nccc(Oc3c(F)cc(NC(=O)NC4CC4)c(Cl)c3F)c2cc1C(=O)NCC(F)F",
    "experimental-value": "< 5 µM"
  },
  {
    "compound": "NC(=O)c1cc2c(Oc3c(F)cc(NC(=O)NC4CC4)c(Cl)c3F)ccnc2cc1OCCF",
    "experimental-value": "< 5 µM"
  },
  {
    "compound": "COc1cc2nccc(Oc3c(F)cc(NC(=O)NC4CC4)c(Cl)c3F)c2cc1C(=O)NCC(F)(F)F",
    "experimental-value": "< 5 µM"
  },
  {
    "compound": "NC(=O)c1cc2c(Oc3c(F)cc(NC(=O)NC4CC4)c(Cl)c3F)ccnc2cc1OCC(F)(F)F",
    "experimental-value": "< 5 µM"
  },
  {
    "compound": "N#CCOc1cc2nccc(Oc3c(F)cc(NC(=O)NC4CC4)c(Cl)c3F)c2cc1C(N)=O",
    "experimental-value": "< 5 µM"
  },
  {
    "compound": "CNC(=O)c1cc(Oc2ccc(NC(=O)Nc3ccc(Cl)c(C(F)(F)F)c3)c(F)c2)ccn1 [Regorafenib, regorafenib, reference compound]",
    "experimental-value": "5 to 10 µM"
  },
  {
    "compound": "COc1cc2nccc(Oc3ccc(NC(=O)NC4CC4)c(Cl)c3)c2cc1C(N)=O [Lenvatinib, lenvatinib, reference compound]",
    "experimental-value": "5 to 10 µM"
  },
  {
    "compound": "COc1cc2nccc(Oc3c(F)cc(NC(=O)NC4CC4)c(Cl)c3F)c2cc1C(=O)NCC#N",
    "experimental-value": "< 5 µM"
  },
  {
    "compound": "COc1cc2nccc(Oc3c(F)cc(NC(=O)NC4CC4)c(Cl)c3F)c2cc1C(=O)NCCF",
    "experimental-value": "> 10 µM"
  },
  {
    "compound": "N#CCCOc1cc2nccc(Oc3c(F)cc(NC(=O)NC4CC4)c(Cl)c3F)c2cc1C(N)=O",
    "experimental-value": "< 5 µM"
  },
  {
    "compound": "NC(=O)c1cc2c(Oc3c(F)cc(NC(=O)NC4CC4)c(Cl)c3F)ccnc2cc1OCC1(N)CC1",
    "experimental-value": "< 5 µM"
  },
  {
    "compound": "COc1cc2nccc(Oc3c(F)cc(NC(=O)NC4CC4)c(Cl)c3F)c2cc1C(=O)NCCC#N",
    "experimental-value": "< 5 µM"
  },
  {
    "compound": "NC(=O)c1cc2c(Oc3c(F)cc(NC(=O)NC4CC4)c(Cl)c3F)ccnc2cc1OCCO",
    "experimental-value": "< 5 µM"
  }
]
